- Test system: HepG2 cells
- TEST SUMMARY: In vitro cytotoxicity, neutral red assay
- Type: cell-based
- CONDITION PARAMETERS: Homo sapiens, HepG2, 24 h, one day of incubation, mean ± SD (n ≥ 2)
QUANTITY NAME: pIC50
Answers are plain numbers, as −log10 of the molar value.

Would you be so kind as to report pIC50 for each listed record?
1. CCCc1nccc2c3ccccc3n(Cc3cn(CCNc4ccnc5cc(Cl)ccc45)nn3)c12
2. CCCOc1ccc2c(c1)c1ccnc(C)c1n2CCNC(=O)CNc1ccnc2cc(Cl)ccc12
3. Cc1nccc2c3ccc(OC(C)C)cc3n(Cc3cn(CCNc4ccnc5cc(Cl)ccc45)nn3)c12

Result block:
1: 4.16; 2: 4.45; 3: 4.57

Would you be so kind as to report pIC50 for each listed record?
1. CCc1nccc2c3ccccc3n(Cc3cn(CCNc4ccnc5cc(Cl)ccc45)nn3)c12
2. COc1ccc2c(c1)c1ccnc(C)c1n2CCNC(=O)CNc1ccnc2cc(Cl)ccc12
3. CCCOc1ccc2c(c1)c1ccnc(C)c1n2Cc1cn(CCNc2ccnc3cc(Cl)ccc23)nn1
4. CCCOc1ccc2c3ccnc(C)c3n(CCNC(=O)CNc3ccnc4cc(Cl)ccc34)c2c1
5. COc1ccc2c(c1)c1ccnc(C)c1n2Cc1cn(CCNc2ccnc3cc(Cl)ccc23)nn1

Result block:
1: 4.17; 2: 4.61; 3: 4.69; 4: 4.74; 5: 4.49
